system: MCF7 breast; experiment: NCI tumour cell line growth inhibition, 48 h
READOUT: TGI (µM)
Return type: number; implicit unit µM.

>  <COMPOUND>
COC(=O)[C@@]12OC[C@]34[C@H]([C@@H](O)[C@@H]1O)[C@@]1(C)[C@H](O)C(=O)C=C(C)[C@@H]1C[C@H]3OC(=O)C(OC(C)=O)[C@@H]24 (some centres undefined)

>  <UNIT_OF_MEASURE>
µM

>  <VALUE_MEASURED>
0.0701

$$$$

Field: next compound
## Task // TGI lookup, key: Cc1cc(O)c(C2=NN(c3ccc(S(N)(=O)=O)cc3)C(c3ccccc3Cl)C2)cc1Cl (centres undefined)
## Result 3.33

Cited source for all entries: PubChem BioAssay (NCI)
